For each of the variants below, state its normalized RNA/DNA level with ligand (log10).
B1: library; a variant is named by its letters at N, in order (parent)
chain: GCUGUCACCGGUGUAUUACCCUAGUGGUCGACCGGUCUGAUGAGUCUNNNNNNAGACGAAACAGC

variants of: B1; test: normalized RNA/DNA level with ligand (relative to sTRSVctl = 100) (log10 (% of sTRSVctl)); ligand: hypoxanthine (xanthine aptamer); higher = less ribozyme self-cleavage, higher mRNA level; settings: ligand concentration (+) RNA-Seq: 5 mM, HEK293T, reporter: mCherry (pCS4076), ligand present: yes
Numbers only.

Sequence Entry	Reported Measurement
GCUGUCACCGGUGUAUUACCCUAGUGGUCGACCGGUCUGAUGAGUCUACAUGGAGACGAAACAGC [ACAUGG]	1.87
GCUGUCACCGGUGUAUUACCCUAGUGGUCGACCGGUCUGAUGAGUCUUUGUUGAGACGAAACAGC [UUGUUG]	2.03
GCUGUCACCGGUGUAUUACCCUAGUGGUCGACCGGUCUGAUGAGUCUCCGCUUAGACGAAACAGC [CCGCUU]	1.96

Moving on to another variant below.
Inquiry: Field request: normalized RNA/DNA level with ligand (log10) | item: GCUGUCACCGGUGUAUUACCCUAGUGGUCGACCGGUCUGAUGAGUCUACUCGUAGACGAAACAGC [ACUCGU]
Reply text: 1.95
